Values were extracted from patent US20260098059A1.

Biological target: T1, β-catenin (UniProt P35222 134-665, limits assumed, biotinylated in the SPR and plate assays)
T1 construct: also called beta catenin; biotinylated β-catenin
T1 sequence (looked up): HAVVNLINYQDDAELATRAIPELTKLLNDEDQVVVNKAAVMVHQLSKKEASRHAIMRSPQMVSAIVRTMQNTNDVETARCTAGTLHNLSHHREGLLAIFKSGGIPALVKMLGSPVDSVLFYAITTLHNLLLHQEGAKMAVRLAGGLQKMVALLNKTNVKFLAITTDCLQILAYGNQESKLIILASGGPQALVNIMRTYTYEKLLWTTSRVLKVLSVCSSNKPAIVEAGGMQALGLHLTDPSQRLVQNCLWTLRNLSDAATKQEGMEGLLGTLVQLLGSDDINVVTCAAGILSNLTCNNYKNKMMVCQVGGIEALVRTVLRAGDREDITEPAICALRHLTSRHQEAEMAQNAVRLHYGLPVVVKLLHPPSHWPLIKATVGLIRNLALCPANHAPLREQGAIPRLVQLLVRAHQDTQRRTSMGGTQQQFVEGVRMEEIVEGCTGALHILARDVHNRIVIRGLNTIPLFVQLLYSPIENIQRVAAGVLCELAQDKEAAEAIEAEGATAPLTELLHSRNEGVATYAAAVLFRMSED
Experiment: competitive FP
pKd: −log10 of the molar value.
// values below are reported pKd
attribute measured: pKd

binder	attribute measured	observed
XWFLICAWD (HELM PEPTIDE1{[O=C(CCCCCN[*:1])[*:2]].W.F.L.I.C.A.W.D}$PEPTIDE1,PEPTIDE1,1:R1-9:R3$$$V2.0; SMILES CC[C@H](C)[C@@H]1NC(=O)[C@H](CC(C)C)NC(=O)[C@H](Cc2ccccc2)NC(=O)[C@H](Cc2c[nH]c3ccccc23)NC(=O)CCCCCNC(=O)C[C@@H](C(=O)O)NC(=O)[C@H](Cc2c[nH]c3ccccc23)NC(=O)[C@H](C)NC(=O)[C@H](CS)NC1=O) [SEQ ID NO: 245]	pKd	≥ 6.40
Ac-MWILISFWG-OH [SEQ ID NO: 165]	pKd	≥ 6.40
WPQSILDEHGQKVWG (not fully specified; Ac-NH-WPQSILDE*H-Chg-QK*VWG-NH2) [SEQ ID NO: 472]	pKd	≥ 6.40
